# systemUnderTest: hP2X3 (human Purinergic P2X receptors subtype 3), clone B (Homo sapiens)
# Sequence (P56373 whole entry): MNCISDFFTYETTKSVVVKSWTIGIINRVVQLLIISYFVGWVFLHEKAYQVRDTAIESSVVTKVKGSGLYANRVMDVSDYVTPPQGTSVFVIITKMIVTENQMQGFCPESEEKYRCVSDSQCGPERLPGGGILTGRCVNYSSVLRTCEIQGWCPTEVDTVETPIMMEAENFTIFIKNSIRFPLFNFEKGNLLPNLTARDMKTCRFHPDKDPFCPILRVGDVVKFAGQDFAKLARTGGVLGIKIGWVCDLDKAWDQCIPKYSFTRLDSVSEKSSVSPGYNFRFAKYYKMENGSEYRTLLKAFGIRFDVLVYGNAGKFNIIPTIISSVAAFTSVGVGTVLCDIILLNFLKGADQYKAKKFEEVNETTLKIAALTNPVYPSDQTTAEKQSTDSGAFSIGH
# assaySummary: hP2X3 FLIPR calcium (Fluo-4) antagonist assay, clone B
# testContext: Human P2X3 FLIPR Clone B IC50 (nM), RLE cells expressing hP2X3 clone B (NM_002559); agonist 500 nM α,β-methylene-ATP
quantityName: IC50 (nM)
State the answer as a number, implicitly in nM.

Need IC50 of CC(=O)N1CCN(c2nc3c(c(N4CCCC4c4nc(-c5ccccc5)no4)n2)CN(C(C)C)C3=O)CC1 (stereo not shown) [Example 280] , thanks.
5100

----------
Below, each of the molecules is paired with its reported IC50 value.
# systemUnderTest: hP2X3 (human Purinergic P2X receptors subtype 3), clone B (Homo sapiens)
# assaySummary: hP2X3 FLIPR calcium (Fluo-4) antagonist assay, clone B
# testContext: Human P2X3 FLIPR Clone B IC50 (nM), RLE cells expressing hP2X3 clone B (NM_002559); agonist 500 nM α,β-methylene-ATP
# output: bare number, implied unit nM

Worked examples follow.
> print(dat)
                                   molecule  quantityname  unitdescriptor  observedvalue
1  CC(=O)N1CCN(c2nc3c(c(N4CCOC(C)(c5ccc(Cl)cc5)C4)n2)CN(C(C)C)C3=O)CC1 (stereo not shown)          IC50              nM           9100
2  CC(=O)N1CCN(c2nc(NCC3OCCc4ccccc43)c3c(n2)C(=O)N(C(C)C)C3)CC1 (stereo not shown)          IC50              nM           5300
3  CC(=O)N1CCN(c2nc(NC3(c4ccc(Cl)cc4)CC3)c3c(n2)C(=O)N(C(C)C)C3)CC1          IC50              nM           2300

Form field: reported IC50 of CC(C)N1Cc2c(NCc3cnc4ccccc4c3)nc(N3CCCC3CN3CCOCC3)nc2C1=O (stereo not shown)
4600

Can you look up the measured IC50 of CC(=O)N1CCN(c2nc(N[C@H](C)c3ccc4c(c3)CCC(C)(C)O4)c3c(n2)C(=O)N(C(C)C)C3)CC1 for me?
51

Requested field: IC50. Item: CCOc1cccc([C@@H](C)Nc2nc(N3CCN(C(C)=O)CC3)nc3c2CN(C(C)C)C3=O)c1
830

Reported IC50, molecule CC(=O)N1CCN(c2nc(NC(C)(C)Cc3ccc(C)cc3)c3c(n2)C(=O)N(C(C)C)C3)CC1 : ____
56

----------
# systemUnderTest: UniProt P56373
# assaySummary: hP2X3 FLIPR calcium (Fluo-4) antagonist assay, clone B
# testContext: Human P2X3 FLIPR Clone B IC50 (nM), RLE cells expressing hP2X3 clone B (NM_002559); agonist 500 nM α,β-methylene-ATP
The compounds listed here are annotated with their IC50.

Recorded results for 3 compounds are shown here.
> print(dat)
                                   compound  quantityname  observedvalue
1  CC(=O)N1CCN(c2nc3c(c(N(Cc4ccc(Cl)cc4)CC4CC4)n2)CN(C(C)C)C3=O)CC1          IC50         220 nM
2  CC(=O)N1CCN(c2nc(NC(C)c3ccc(C(C)(C)C)cc3)c3c(n2)C(=O)N(C(C)C)C3)CC1 (stereo not shown)          IC50         440 nM
3  CC(C)N1Cc2c(NC(C)(C)Cc3ccc(Cl)cc3)nc(NCCCN3CCCC3=O)nc2C1=O          IC50        1400 nM

Moving on to the next compound.
What IC50 value was documented for this compound, CCN(Cc1cc2ccccc2cn1)c1nc(N2CCN(C(C)=O)CC2)nc2c1CN(C(C)C)C2=O ?
28 nM

Provenance of the data: patent US20090099195A1
